B1: STX5 (parent)
chain: ESTIVELGSIFQQLAHMVKEQEET

- Variants of: B1
- experimentNotes: protein stability index of a GFP-peptide fusion (GPS, HEK-293T) (PSI 1-6); higher = more stable;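 also: lentivirally expressed fusions sorted by FACS into six bins by GFP to DsRed ratio, PSI derived from sequencing read proportions per bin multiplied by bin number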
- protocolConditions: c terminus: a fixed tail appended
recordedEndpoint: protein stability index

>  <mutantId>
S2T

>  <protein stability index>
2.05

$$$$
>  <mutantId>
L7P

>  <protein stability index>
4.75

$$$$
>  <mutantId>
M17G

>  <protein stability index>
3.86

$$$$

Now let's try a different one.
Challenge: Fill blank: measured protein stability index of the variant K19I is ____.
Response given: 1.59
